testTarget: T1, CD3 epsilon homodimer protein (UniProt P07766 23-126)
T1 construct: also called CD3 (CD3 epsilon)
T1 sequence (P07766 23-126): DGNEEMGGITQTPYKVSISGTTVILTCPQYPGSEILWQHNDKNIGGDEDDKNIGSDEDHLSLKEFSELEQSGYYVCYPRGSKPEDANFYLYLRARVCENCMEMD
testProtocol: SPR, antibody over immobilised CD3e homodimer;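 note: SPR at 25 °C with CD3 epsilon homodimer amine-coupled to a CM4 sensor chip and antibody flowed over as analyte in HBS-EP+ running buffer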
Reported values of KD ratio to GLS3000 for individual entries
readoutLabel: KD ratio to GLS3000

CE115HA000/GLS3000 N53F (antibody, IgG1, name in Kabat numbering, V domains shown, one-arm IgG1) VH: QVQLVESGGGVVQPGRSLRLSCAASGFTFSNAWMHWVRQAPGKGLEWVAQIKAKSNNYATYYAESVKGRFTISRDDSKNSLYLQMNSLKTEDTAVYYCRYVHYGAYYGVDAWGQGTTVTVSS VL: DIVMTQSPLSLPVTPGEPASISCRSSQSLVHSNRNTYLHWYQQKPGQAPRLLIYKVSFRFSGVPDRFSGSGSGTDFTLKISRVEAEDVGVYYCGQGTQVPYTFGQGTKLEIK; 0.96
CE115HA000/GLS3000 S52P (antibody, IgG1, name in Kabat numbering, V domains shown, one-arm IgG1) VH: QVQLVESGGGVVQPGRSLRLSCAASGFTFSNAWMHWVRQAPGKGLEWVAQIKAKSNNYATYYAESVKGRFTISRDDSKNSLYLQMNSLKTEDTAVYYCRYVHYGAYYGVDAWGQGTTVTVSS VL: DIVMTQSPLSLPVTPGEPASISCRSSQSLVHSNRNTYLHWYQQKPGQAPRLLIYKVPNRFSGVPDRFSGSGSGTDFTLKISRVEAEDVGVYYCGQGTQVPYTFGQGTKLEIK; 7.38
CE115HA000/GLS3000 S27eY (antibody, IgG1, name in Kabat numbering, V domains shown, one-arm IgG1) VH: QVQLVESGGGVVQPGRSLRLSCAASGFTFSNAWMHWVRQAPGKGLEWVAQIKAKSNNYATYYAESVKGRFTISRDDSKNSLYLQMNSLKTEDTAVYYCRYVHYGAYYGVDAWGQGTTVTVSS VL: DIVMTQSPLSLPVTPGEPASISCRSSQSLVHYNRNTYLHWYQQKPGQAPRLLIYKVSNRFSGVPDRFSGSGSGTDFTLKISRVEAEDVGVYYCGQGTQVPYTFGQGTKLEIK; 1.1
